- Tested target: T1, human CD28 (human, UniProt P10747 19-220, On cells CD28 is a disulfide linked homodimer and a glycoprotein; one copy of the chain is given.)
- T1 construct: also called T-cell specific surface glycoprotein CD28
- T1 sequence (P10747 19-220 limits assumed): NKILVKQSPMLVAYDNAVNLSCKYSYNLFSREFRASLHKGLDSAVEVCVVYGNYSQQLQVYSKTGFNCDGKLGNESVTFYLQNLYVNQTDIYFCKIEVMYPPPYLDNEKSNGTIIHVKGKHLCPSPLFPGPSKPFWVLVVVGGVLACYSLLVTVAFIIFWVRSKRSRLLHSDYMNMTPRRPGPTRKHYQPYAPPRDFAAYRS
- Method: flow cytometry, Ba/F3-human CD28 cells pre-incubated with 70 ug antibody, then 1 ug biotinylated recombinant CD86 (competitor) + labelled streptavidin
Observable: % Reduction (of CD86 binding) (%)
Numbers only, in %.

Examples with their reported % Reduction (of CD86 binding) follow.
# Binder, Unit abbrev, % Reduction (of CD86 binding)
rows = [
    ("exemplary anti-CD28 antibody AB3 (antibody, V domains shown, Mouse hybridoma monoclonal antibody; Conjugated to PE in the staining assays; also called antibody 3; clone 3) VH: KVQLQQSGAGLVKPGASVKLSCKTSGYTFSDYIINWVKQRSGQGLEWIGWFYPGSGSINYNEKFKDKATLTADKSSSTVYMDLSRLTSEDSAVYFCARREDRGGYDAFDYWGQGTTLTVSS VL: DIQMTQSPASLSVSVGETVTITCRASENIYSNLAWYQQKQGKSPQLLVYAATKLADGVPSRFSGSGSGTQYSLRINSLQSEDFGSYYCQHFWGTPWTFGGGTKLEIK", "%", 90.4),
    ("exemplary anti-CD28 antibody AB7 (antibody, V domains shown, Mouse hybridoma monoclonal antibody; Conjugated to PE in the staining assays; also called antibody 7; clone 7) VH: KVQLQQSGAGLVKPGASVKLSCKASGYTFSDYIINWVKQRSGQGLEWIGWFYPGSGSINYNEKFKDKATLTADKSSSTVYMDLSRLTSEDSAVYFCARREDRGGYDAFDYWGQGTTLTVSS VL: DIQMTQSPASLSVSVGETVTITCRTSENIYSNLAWYQQKQGKSPQLLVYAATKLADGVPSRFSGSGSGTQYSLRINSLQPEDFGSYYCQHFWGTPWTFGGGTKLEIK", "%", 88.5),
]

Data request, read-out % Reduction (of CD86 binding), for exemplary anti-CD28 antibody AB4 (antibody, V domains shown, Mouse hybridoma monoclonal antibody; Conjugated to PE in the staining assays; also called antibody 4; clone 4) VH: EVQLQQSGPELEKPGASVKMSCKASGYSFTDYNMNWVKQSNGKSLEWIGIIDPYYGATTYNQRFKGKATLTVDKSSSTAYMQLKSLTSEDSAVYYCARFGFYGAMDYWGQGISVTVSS VL: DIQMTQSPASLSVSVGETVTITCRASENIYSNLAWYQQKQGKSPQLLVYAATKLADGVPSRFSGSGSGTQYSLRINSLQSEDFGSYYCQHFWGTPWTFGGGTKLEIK
92.1
